These entries and their values trace back to patent US5179088A.

System: H. Influ.
Test: in vitro antibacterial activity, agar dilution (H. influ.)
Assay type: cell-based
Set-up: unit not given here
Details: res, strain 76
Task for the reader: assign each of the following compounds its reported minimum inhibitory concentration.

Prompt line: Checklist item: minimum inhibitory concentration tested on H. Influ., entry CO/N=C(\C(=O)N[C@@H]1C(=O)N2C(C(=O)O)=C(c3csc(-c4ccco4)n3)CC[C@H]12)c1csc(N)n1 [Example 32] , value?
Response line: < .008

Prompt line: Checklist item: minimum inhibitory concentration tested on H. Influ., entry Nc1nc(C2=C(C(=O)O)N3C(=O)[C@@H](NC(=O)[C@H](N)c4ccccc4)[C@H]3CC2)cs1 [Example 41] , value?
Response line: 32

Prompt line: Checklist item: minimum inhibitory concentration tested on H. Influ., entry CO/N=C(\C(=O)N[C@@H]1C(=O)N2C(C(=O)O)=C(c3csc(-c4ccccc4)n3)CC[C@H]12)c1csc(N)n1 [Example 31] , value?
Response line: .03

Prompt line: Checklist item: minimum inhibitory concentration tested on H. Influ., entry CO/N=C(\C(=O)N[C@@H]1C(=O)N2C(C(=O)O)=C(c3csc(-c4ccc(O)c(O)c4)n3)CC[C@H]12)c1csc(N)n1 [Example 40] , value?
Response line: .015

Prompt line: Checklist item: minimum inhibitory concentration tested on H. Influ., entry Cn1c([N+](=O)[O-])cnc1-c1nc(C2=C(C(=O)O)N3C(=O)[C@@H](NC(=O)/C(=N\O)c4csc(N)n4)[C@H]3CC2)cs1 [Example 33] , value?
Response line: .015

Prompt line: Checklist item: minimum inhibitory concentration tested on H. Influ., entry CO/N=C(\C(=O)N[C@@H]1C(=O)N2C(C(=O)O)=C(c3csc(N)n3)CC[C@H]12)c1csc(N)n1 [Example 39] , value?
Response line: .06

Prompt line: Checklist item: minimum inhibitory concentration tested on H. Influ., entry CO/N=C(\C(=O)N[C@@H]1C(=O)N2C(C(=O)O)=C(c3csc(C(c4ccccc4)c4ccccn4)n3)CC[C@H]12)c1csc(N)n1 (some centres unmarked) [Example 38] , value?
Response line: .125

Prompt line: Checklist item: minimum inhibitory concentration tested on H. Influ., entry CON=C(C(=O)NC1C(=O)N2C(C(=O)[O-])=C(c3csc(-c4ccc[n+](C)c4)n3)CCC12)c1csc(N)n1 (centres unmarked) [Example 34] , value?
Response line: .015

---

Tested on: Serratia
Experiment: in vitro antibacterial activity, agar dilution (Serratia)
Assay type: cell-based
Design: unit not given here
Details: strain X99
Task for the reader: assign each of the following molecules its reported minimum inhibitory concentration.
Please give the numeric answer without any surrounding text.

Prompt line: // lookup minimum inhibitory concentration for CO/N=C(\C(=O)N[C@@H]1C(=O)N2C(C(=O)O)=C(c3csc(-c4ccc([N+](=O)[O-])cc4)n3)CC[C@H]12)c1csc(N)n1
Response line: 4

Prompt line: // lookup minimum inhibitory concentration for CO/N=C(\C(=O)N[C@@H]1C(=O)N2C(C(=O)O)=C(c3csc(-c4ccc(F)cc4)n3)CC[C@H]12)c1csc(N)n1
Response line: 4

Prompt line: // lookup minimum inhibitory concentration for Nc1nc(C2=C(C(=O)O)N3C(=O)[C@@H](NC(=O)[C@H](N)c4ccccc4)[C@H]3CC2)cs1
Response line: 128

Prompt line: // lookup minimum inhibitory concentration for Cn1c([N+](=O)[O-])cnc1-c1nc(C2=C(C(=O)O)N3C(=O)[C@@H](NC(=O)/C(=N\O)c4csc(N)n4)[C@H]3CC2)cs1
Response line: 2

Prompt line: // lookup minimum inhibitory concentration for CO/N=C(\C(=O)N[C@@H]1C(=O)N2C(C(=O)O)=C(c3csc(C(c4ccccc4)c4ccccn4)n3)CC[C@H]12)c1csc(N)n1 (stereo partly drawn)
Response line: 8

---

Tested on: H. Influ.
Assay: in vitro antibacterial activity, agar dilution (H. influ.)
Assay type: cell-based
Design: unit not given here
Conditions: sens, strain C.L.
REPORTED_ENDPOINT: minimum inhibitory concentration

Prompt line: Checklist item: minimum inhibitory concentration tested on H. Influ., entry CO/N=C(\C(=O)N[C@@H]1C(=O)N2C(C(=O)O)=C(c3csc(-c4ccc(F)cc4)n3)CC[C@H]12)c1csc(N)n1 , value?
Response line: .03

Prompt line: Checklist item: minimum inhibitory concentration tested on H. Influ., entry Cn1c([N+](=O)[O-])cnc1-c1nc(C2=C(C(=O)O)N3C(=O)[C@@H](NC(=O)/C(=N\O)c4csc(N)n4)[C@H]3CC2)cs1 , value?
Response line: .06

Prompt line: Checklist item: minimum inhibitory concentration tested on H. Influ., entry CO/N=C(\C(=O)N[C@@H]1C(=O)N2C(C(=O)O)=C(c3csc(N)n3)CC[C@H]12)c1csc(N)n1 , value?
Response line: .06

Prompt line: Checklist item: minimum inhibitory concentration tested on H. Influ., entry CO/N=C(\C(=O)N[C@@H]1C(=O)N2C(C(=O)O)=C(c3csc(-c4ccc(O)c(O)c4)n3)CC[C@H]12)c1csc(N)n1 , value?
Response line: .125

Prompt line: Checklist item: minimum inhibitory concentration tested on H. Influ., entry CO/N=C(\C(=O)N[C@@H]1C(=O)N2C(C(=O)O)=C(c3csc(-c4ccc([N+](=O)[O-])cc4)n3)CC[C@H]12)c1csc(N)n1 , value?
Response line: .03

Prompt line: Checklist item: minimum inhibitory concentration tested on H. Influ., entry CO/N=C(\C(=O)N[C@@H]1C(=O)N2C(C(=O)O)=C(c3csc(-c4ccccc4)n3)CC[C@H]12)c1csc(N)n1 , value?
Response line: .06

Prompt line: Checklist item: minimum inhibitory concentration tested on H. Influ., entry Nc1nc(C2=C(C(=O)O)N3C(=O)[C@@H](NC(=O)[C@H](N)c4ccccc4)[C@H]3CC2)cs1 , value?
Response line: 64

Prompt line: Checklist item: minimum inhibitory concentration tested on H. Influ., entry CO/N=C(\C(=O)N[C@@H]1C(=O)N2C(C(=O)O)=C(c3csc(-c4ccco4)n3)CC[C@H]12)c1csc(N)n1 , value?
Response line: .06

Prompt line: Checklist item: minimum inhibitory concentration tested on H. Influ., entry CO/N=C(\C(=O)N[C@@H]1C(=O)N2C(C(=O)O)=C(c3csc(C(c4ccccc4)c4ccccn4)n3)CC[C@H]12)c1csc(N)n1 (some centres unmarked) , value?
Response line: 2

Prompt line: Checklist item: minimum inhibitory concentration tested on H. Influ., entry CO/N=C(\C(=O)N[C@@H]1C(=O)N2C(C(=O)O)=C(c3csc(-c4ncc([N+](=O)[O-])s4)n3)CC[C@H]12)c1csc(N)n1 , value?
Response line: .015

Prompt line: Checklist item: minimum inhibitory concentration tested on H. Influ., entry CON=C(C(=O)NC1C(=O)N2C(C(=O)[O-])=C(c3csc(-c4ccc[n+](C)c4)n3)CCC12)c1csc(N)n1 (centres unmarked) , value?
Response line: .015

---

System: Enterbacter Cloacea
Experiment: in vitro antibacterial activity, agar dilution (Enterobacter cloacae)
Assay type: cell-based
Parameters: unit not given here
Settings: strain EB5
Task for the reader: assign each of the following molecules its reported minimum inhibitory concentration.
Please give the numeric answer without any surrounding text.

Prompt line: Checklist item: minimum inhibitory concentration tested on Enterbacter Cloacea, entry Nc1nc(C2=C(C(=O)O)N3C(=O)[C@@H](NC(=O)[C@H](N)c4ccccc4)[C@H]3CC2)cs1 [Example 41] , value?
Response line: 128

Prompt line: Checklist item: minimum inhibitory concentration tested on Enterbacter Cloacea, entry CO/N=C(\C(=O)N[C@@H]1C(=O)N2C(C(=O)O)=C(c3csc(-c4ccc(F)cc4)n3)CC[C@H]12)c1csc(N)n1 [Example 37] , value?
Response line: 2

Prompt line: Checklist item: minimum inhibitory concentration tested on Enterbacter Cloacea, entry CO/N=C(\C(=O)N[C@@H]1C(=O)N2C(C(=O)O)=C(c3csc(-c4ncc([N+](=O)[O-])s4)n3)CC[C@H]12)c1csc(N)n1 [Example 36] , value?
Response line: 1

Prompt line: Checklist item: minimum inhibitory concentration tested on Enterbacter Cloacea, entry Cn1c([N+](=O)[O-])cnc1-c1nc(C2=C(C(=O)O)N3C(=O)[C@@H](NC(=O)/C(=N\O)c4csc(N)n4)[C@H]3CC2)cs1 [Example 33] , value?
Response line: 1

Prompt line: Checklist item: minimum inhibitory concentration tested on Enterbacter Cloacea, entry CO/N=C(\C(=O)N[C@@H]1C(=O)N2C(C(=O)O)=C(c3csc(N)n3)CC[C@H]12)c1csc(N)n1 [Example 39] , value?
Response line: 2

Prompt line: Checklist item: minimum inhibitory concentration tested on Enterbacter Cloacea, entry CO/N=C(\C(=O)N[C@@H]1C(=O)N2C(C(=O)O)=C(c3csc(-c4ccco4)n3)CC[C@H]12)c1csc(N)n1 [Example 32] , value?
Response line: 2

Prompt line: Checklist item: minimum inhibitory concentration tested on Enterbacter Cloacea, entry CO/N=C(\C(=O)N[C@@H]1C(=O)N2C(C(=O)O)=C(c3csc(-c4ccccc4)n3)CC[C@H]12)c1csc(N)n1 [Example 31] , value?
Response line: 1

Prompt line: Checklist item: minimum inhibitory concentration tested on Enterbacter Cloacea, entry CO/N=C(\C(=O)N[C@@H]1C(=O)N2C(C(=O)O)=C(c3csc(-c4ccc([N+](=O)[O-])cc4)n3)CC[C@H]12)c1csc(N)n1 [Example 35] , value?
Response line: 1

Prompt line: Checklist item: minimum inhibitory concentration tested on Enterbacter Cloacea, entry CO/N=C(\C(=O)N[C@@H]1C(=O)N2C(C(=O)O)=C(c3csc(C(c4ccccc4)c4ccccn4)n3)CC[C@H]12)c1csc(N)n1 (some centres unmarked) [Example 38] , value?
Response line: 8
